Tested on: LOX IMVI melanoma
experiment_summary: NCI tumour cell line growth inhibition, 48 h
Could you please report measured TGI for the items listed next?

Below, each entry is followed by its recorded TGI result.
- molecule: "CCOC(=O)NN(C(=O)OCC)C(=C(c1ccccc1)N1CCOCC1)N(NC(=O)OCC)C(=O)OCC"
  TGI: "> 100 µM"
- molecule: "COC(=O)c1cc(CC2Cc3cc4c(cc3C2)CCC4)cc2c1CCC2"
  TGI: "> 100 µM"

Consider now this further compound.
Given the compound `C/C(=N/NC(=S)N1CCCCC1)c1cccc(/C(C)=N\NC(=S)N2CCCCC2)n1` , what is its reported TGI?
5.4 µM

Source listed as PubChem BioAssay (NCI).
